SYSTEM_NAME: T1, soluble recombinant human IL-1RI (corresponding to the extracellular domain of IL-1RI) (human, UniProt P14778 18-336)
T1 construct: extracellular domain
T1 sequence (looked up): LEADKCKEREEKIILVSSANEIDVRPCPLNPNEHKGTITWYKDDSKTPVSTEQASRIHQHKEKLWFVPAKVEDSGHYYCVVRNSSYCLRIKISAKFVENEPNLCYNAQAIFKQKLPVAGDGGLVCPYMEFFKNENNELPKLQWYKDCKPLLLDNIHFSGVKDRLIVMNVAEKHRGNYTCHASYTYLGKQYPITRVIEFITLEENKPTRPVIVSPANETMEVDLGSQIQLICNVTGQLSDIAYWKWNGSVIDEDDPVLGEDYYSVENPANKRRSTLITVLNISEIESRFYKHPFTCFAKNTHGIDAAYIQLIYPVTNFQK
EXPERIMENTAL_DETAILS: SPR (Reichert SR7000DC), soluble recombinant human IL-1RI, PBS with 0.005% Tween 20
MEASUREMENT_LABEL: koff (s⁻¹)

P06 (designed binder, Expressed in E. coli) APVRSLNCTLWDVNQKTFYLRNNQLVAGYLQGPNVEQQVVFSMSFVQGEESNDKIPVALGLKEKNLYLSCVLKDDKPTLQLESVDPKNYPKKKMEKRFVFNKIEINNKLEFESAQFPNWYISTSMEADQPVFLGGTKGGQDITDFTMQFVSS
0.0017
P07 (designed binder, Expressed in E. coli) APVRSLNCRIWDVNQKTFYLRNNQLVAGYLQGPNVNLEEKFSMSFVQGEESNDKIPVALGLKEKNLYLSCVLKDDKPTLQLESVDPKNYPKKKMEKRFVFNKIEINNKLEFESAQFPNWFLCTAMEADQPVSLTNMPDEGQDITDFTMQFVSS
0.00146
P03 (designed binder, Expressed in E. coli; also called chimeric cytokine domain P03) APVRSLAFRIWDVNQKTFYLRNNQLVAGYLQGPNVNLEEKFSMSFVQGEESNDKIPVALGLKEKNLYLSCVLKDDKPTLQLESVDPKNYPKKKMEKRFVFIRSDSGPTTSFESAACPGWFLCTAMEADQPVSLTNMPDEGVMVTKFTMQFVSS
0.0012
P02 (designed binder, Expressed in E. coli; also called chimeric cytokine domain P02) APVRSLAFRIWDVNQKTFYLRNNQLVAGYLQGPNVNLEEKIDVSFVQGEESNDKIPVALGIHGGKMCLSCVKSGDETRLQLEAVDPKNYPKKKMEKRFVFNKIEINNKLSFESAACPGWFLCTAMEADQPVSLTNMPDEGVMVTKFYMQFVSS
2.16e-05
P01 (designed binder, Expressed in E. coli; In the cell assay, supernatants or lysates containing P01 were used; also called chimeric cytokine domain P01) APVRSLAFRIWDVNQKTFYLRNNQLVAGYLQGPNVNLEEKIDVSFVQGEESNDKIPVALGIHGGKMCLSCVKSGDETRLQLEAVDPKNYPKKKMDKRFAFIRSDSGPTTSFESAACPGWFLCTAMEADQPVSLTNMPDEGVMVTKFYMQFVSS
2.32e-05
P05 (designed binder, Expressed in E. coli; also called EBI-005; chimeric cytokine domain P05) APVRSLNCRIWDVNQKTFYLRNNQLVAGYLQGPNVNLEEKFSMSFVQGEESNDKIPVALGLKEKNLYLSCVLKDDKPTLQLESVDPKNYPKKKMEKRFVFNKIEINNKLEFESAQFPNWFLCTAMEADQPVSLTNMPDEGVMVTKFYMQFVSS
4.15e-05
